target: HiBit-BRG1 fusion protein (Homo sapiens, UniProt P51532)
Construct: expressed in transfected cells
Sequence (P51532 whole entry, the tested form may be a part): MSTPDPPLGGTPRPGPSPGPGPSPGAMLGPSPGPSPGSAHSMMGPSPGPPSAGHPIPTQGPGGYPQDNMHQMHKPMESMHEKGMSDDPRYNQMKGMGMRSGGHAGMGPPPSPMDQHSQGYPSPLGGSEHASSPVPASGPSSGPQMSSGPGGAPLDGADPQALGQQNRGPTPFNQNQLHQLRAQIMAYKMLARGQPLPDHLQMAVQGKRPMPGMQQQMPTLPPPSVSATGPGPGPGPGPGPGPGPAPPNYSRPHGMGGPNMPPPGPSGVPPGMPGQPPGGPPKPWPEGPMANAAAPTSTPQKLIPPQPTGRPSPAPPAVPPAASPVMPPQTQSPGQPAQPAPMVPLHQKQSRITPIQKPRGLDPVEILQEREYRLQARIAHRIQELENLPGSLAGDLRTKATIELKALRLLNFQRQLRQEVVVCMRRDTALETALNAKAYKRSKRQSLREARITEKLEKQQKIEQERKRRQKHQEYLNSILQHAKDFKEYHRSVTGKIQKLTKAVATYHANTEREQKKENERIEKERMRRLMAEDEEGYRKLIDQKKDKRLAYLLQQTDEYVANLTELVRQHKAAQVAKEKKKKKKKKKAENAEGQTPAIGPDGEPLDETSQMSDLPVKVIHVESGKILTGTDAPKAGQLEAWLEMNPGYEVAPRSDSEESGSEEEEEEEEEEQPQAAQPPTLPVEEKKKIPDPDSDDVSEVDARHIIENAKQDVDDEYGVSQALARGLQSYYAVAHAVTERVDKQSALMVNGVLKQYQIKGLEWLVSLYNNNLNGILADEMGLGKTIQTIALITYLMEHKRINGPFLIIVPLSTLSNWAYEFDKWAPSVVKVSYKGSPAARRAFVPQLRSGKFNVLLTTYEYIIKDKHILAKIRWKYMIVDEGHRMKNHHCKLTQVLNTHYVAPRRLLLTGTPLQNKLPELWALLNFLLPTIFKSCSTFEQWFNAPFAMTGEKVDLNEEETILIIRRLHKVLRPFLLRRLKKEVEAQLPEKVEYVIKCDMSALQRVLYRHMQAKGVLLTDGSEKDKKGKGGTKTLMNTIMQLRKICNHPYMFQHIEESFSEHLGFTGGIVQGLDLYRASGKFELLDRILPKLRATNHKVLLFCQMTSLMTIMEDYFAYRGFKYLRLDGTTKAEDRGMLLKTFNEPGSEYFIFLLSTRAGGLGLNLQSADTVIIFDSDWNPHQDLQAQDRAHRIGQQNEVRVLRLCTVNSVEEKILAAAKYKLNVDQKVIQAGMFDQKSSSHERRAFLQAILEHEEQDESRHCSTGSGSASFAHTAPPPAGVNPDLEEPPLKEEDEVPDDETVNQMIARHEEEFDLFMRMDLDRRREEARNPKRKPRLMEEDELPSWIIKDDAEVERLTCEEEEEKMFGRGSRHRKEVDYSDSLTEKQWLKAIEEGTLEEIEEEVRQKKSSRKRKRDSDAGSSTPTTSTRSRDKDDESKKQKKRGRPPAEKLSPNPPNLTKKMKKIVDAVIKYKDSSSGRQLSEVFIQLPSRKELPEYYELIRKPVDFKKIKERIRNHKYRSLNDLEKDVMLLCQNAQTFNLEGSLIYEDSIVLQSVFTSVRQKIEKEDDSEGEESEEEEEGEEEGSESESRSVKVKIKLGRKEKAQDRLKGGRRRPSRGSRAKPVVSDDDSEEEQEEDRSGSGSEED
measurementProtocol: HiBiT-BRG1 cell-based degradation assay (Nano-Glo HiBiT Lytic Detection, 24 h)
experimentalParameters: HeLa cells expressing HiBit-BRG1 and LgBit, read-out: BRG1 HiBit Degradation IC50
Exercise: for every item that follows, state its recorded DC50.

The recorded DC50 for entry Cc1c(C(=O)NCC(=O)Nc2nc(-c3cccc(-c4ccnc(N(C)CC(=O)NCCCCCCCCNC(=O)COc5cccc6c5C(=O)N(C5CCC(=O)NC5=O)C6=O)c4)c3)cs2)cn(S(C)(=O)=O)c1C (stereo not drawn) equals > 10 µM

The recorded DC50 for entry CS(=O)(=O)n1ccc(C(=O)NCC(=O)Nc2nc(-c3cccc(-c4ccnc(OCCNC(=O)CCOCCOCCNc5ccc6c(c5)C(=O)N(C5CCC(=O)NC5=O)C6=O)c4)c3)cs2)c1 (stereo not drawn) equals > 10 µM

The recorded DC50 for entry CC(C)(C(=O)N1CCC(C2CCN(C(=O)COc3cccc4c3C(=O)N(C3CCC(=O)NC3=O)C4=O)CC2)CC1)n1ccc(-c2cccc(-c3csc(NC(=O)CNC(=O)c4ccn(S(C)(=O)=O)c4)n3)c2)n1 (stereo not drawn) equals > 10 µM

These measurements were taken from patent US12662479B2.
